From: PubChem BioAssay (NCATS)

target: Retinaldehyde dehydrogenase 3 (Homo sapiens); assay: qHTS for Inhibitors of the Aldehyde Dehydrogenase Family (ALDH1A3) Confirmatory screens (AID 2061311); settings: ALDH inhibition qHTS; series mostly up to 46 µM; also: nearly all actives have a fitted effect of over 60% in size
Results filed as inconclusive are left out. Calls of active or inactive are those of the source. Calls follow the shape of the dose curve; as a rule, active = well fitted inhibition curve with a large enough effect; inconclusive = small, poorly fitted or top-dose-only effect; inactive = no such curve, though single readings can be large or run the other way.
Give one outcome, nothing more. List: active, inactive

1. COc1ccc(C2Nc3ccccc3C(=O)N2Cc2ccccc2)cc1COc1ccc(NC(=O)c2ccccc2)cc1 (centres undefined) : inactive
2. OC[C@H]1O[C@@H](Oc2ccc(O)c3cccc(O)c23)[C@H](O)[C@@H](O)[C@@H]1O : active
3. C=C[C@H]1[C@H](O[C@@H]2O[C@H](CO)[C@@H](O)[C@H](O)[C@H]2O)OC=C(C(=O)OC)[C@H]1CCOC(=O)c1cc(O)c(O)c(O)c1 : active
4. OC[C@H]1O[C@@H](Oc2cc(O)cc(-c3cc4ccc(O)cc4o3)c2)[C@H](O)[C@@H](O)[C@@H]1O : active
5. O=[N+]([O-])c1ccc(S(=O)(=O)c2ccc(Cl)cc2)nc1 : active
6. Cc1ccc(OCCn2c(CCNC(=O)c3ccccc3C(F)(F)F)nc3ccccc32)cc1 : inactive
7. COc1ccc([N+](=O)[O-])c(S(=O)(=O)c2ccc(Cl)cc2)n1 : active
8. NC(=O)C1CCN(c2ncc(-c3ccc(Cl)cc3)s2)CC1 : inactive

// next entry
Task: Could you check what this test reported for O=C(O)c1cccc(-c2noc(-c3cccc(Cl)c3)n2)c1 ?
Result: active
